# SYSTEM: PHD2 (Homo sapiens, UniProt Q9GZT9)
# Construct: FLAG-tagged full length PHD2 expressed in and purified from baculovirus-infected Sf9 cells; FLAG
# Sequence (Q9GZT9 whole entry, species assumed): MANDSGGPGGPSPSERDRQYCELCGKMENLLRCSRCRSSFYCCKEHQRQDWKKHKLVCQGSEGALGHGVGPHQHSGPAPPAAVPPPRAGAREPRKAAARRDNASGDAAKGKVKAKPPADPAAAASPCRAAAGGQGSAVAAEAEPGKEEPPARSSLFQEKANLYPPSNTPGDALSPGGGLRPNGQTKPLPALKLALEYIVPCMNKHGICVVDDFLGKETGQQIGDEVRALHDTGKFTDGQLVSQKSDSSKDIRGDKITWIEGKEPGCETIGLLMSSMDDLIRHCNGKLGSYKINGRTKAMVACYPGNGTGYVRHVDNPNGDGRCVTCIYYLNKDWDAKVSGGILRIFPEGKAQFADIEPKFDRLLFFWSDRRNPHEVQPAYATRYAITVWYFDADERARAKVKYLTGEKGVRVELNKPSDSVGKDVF
# PROTOCOL_TEXT: PHD2 inhibition assay (time resolved fluorescence, HIF-1α peptide hydroxylation / VHL complex detection)
# TEST_SETTINGS: FLAG-tagged full length PHD2; 0.2 μM 2-oxoglutarate, 0.5 μM HIF-1α peptide
This section presents molecules with their documented IC50 values.
REPORTED_METRIC: IC50

INSERT INTO results (molecule, reported_metric, result_value) VALUES
  ('O=C(Nc1cnc(-n2cccn2)nc1O)N(c1ccccc1)c1ccccc1', 'IC50', '0.5 to 20 nM'),
  ('CC(C)(C)OC(=O)N1CCCC(C(=O)Nc2cnc(-n3cccn3)nc2O)C1 (stereo not shown)', 'IC50', '100 to 10000 nM'),
  ('O=C(Nc1cnc(-n2cccn2)nc1O)NC1CCCCC1', 'IC50', '20 to 100 nM'),
  ('O=C(Cc1ccncc1)Nc1cnc(-n2cccn2)nc1O', 'IC50', '20 to 100 nM'),
  ('COc1ccc(C(=O)Nc2cnc(-n3cccn3)nc2O)cc1', 'IC50', '20 to 100 nM'),
  ('O=C(Nc1cnc(-c2ccccn2)nc1O)C(c1ccccc1)c1ccccc1', 'IC50', '20 to 100 nM'),
  ('CC(NC(=S)Nc1cnc(-n2cccn2)nc1O)c1ccccc1 (stereo not shown)', 'IC50', '0.5 to 20 nM'),
  ('O=C(Nc1cnc(-n2cccn2)nc1O)c1cccc(C(F)(F)F)c1', 'IC50', '0.5 to 20 nM'),
  ('CS(=O)(=O)c1ccccc1C(=O)Nc1cnc(-n2cccn2)nc1O', 'IC50', '100 to 10000 nM'),
  ('CC(C(=O)Nc1cnc(-n2cccn2)nc1O)c1ccccc1 (stereo not shown)', 'IC50', '0.5 to 20 nM'),
  ('CS(=O)(=O)c1cccc(C(=O)Nc2cnc(-n3cccn3)nc2O)c1', 'IC50', '20 to 100 nM'),
  ('O=S(=O)(Cc1ccc(C(F)(F)F)cc1)Nc1cnc(-n2cccn2)nc1O', 'IC50', '100 to 10000 nM'),
  ('O=C(Cc1ccccc1Cl)Nc1cnc(-n2cccn2)nc1O', 'IC50', '0.5 to 20 nM'),
  ('CC(C)(C)OC(=O)N1CCC(C(=O)Nc2cnc(-n3cccn3)nc2O)CC1', 'IC50', '0.5 to 20 nM'),
  ('COc1cccc(C(=O)Nc2cnc(-n3cccn3)nc2O)c1', 'IC50', '20 to 100 nM'),
  ('N#Cc1cccc(CC(=O)Nc2cnc(-n3cccn3)nc2O)c1', 'IC50', '0.5 to 20 nM'),
  ('O=C(Nc1cnc(-n2cccn2)nc1O)OC1CCCCC1', 'IC50', '20 to 100 nM'),
  ('O=C(Nc1cnc(-n2cccn2)nc1O)c1ccc(Oc2ccccc2)cc1', 'IC50', '0.5 to 20 nM'),
  ('Cc1ccc(S(=O)(=O)NC(=O)c2cnc(-c3cccnn3)nc2O)cc1', 'IC50', '100 to 10000 nM');

Data origin, for the record: patent US9006433B2
